Entry source: PubChem BioAssay (NCI)

Exercise: state measured growth inhibition for each of the compounds provided.
Assay: NCI Yeast Anticancer Drug Screen. Data for the sgs1 mgt1 strain (AID 161);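 further: 0% = growth of cultures given vehicle only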
Details: S. cerevisiae sgs1 mgt1 strain, at 5.0 µM (retest, dose inferred, filed as 0.5), stronger effect = higher value
This is part of a sample that, as a whole, favours compounds with a hit. Of some 79,000 tested, about 15% had one in any assay.
One number for each entry, in %.

Below are worked cases with known answers.
COMPOUND	READING
Clc1ccc(/C=N/Nc2c3ccccc3nc3ccccc23)c(Cl)c1	-5
O=C(Nc1ccc(C(=O)Nc2ccc3c(O)cc(S(=O)(=O)O)cc3c2)cc1)c1ccccc1	2
CCCCCCCCCCCCCCCCNCCCN(C)CCCN	2
NC(=O)Nc1cc(=O)[nH]c(=S)[nH]1	0
C/C(C=C(C#N)C#N)=C\c1ccc([N+](=O)[O-])cc1	-1

We now examine a further compound.
Which growth inhibition reading was recorded for the compound COC(=O)C1(NC(=O)C(CC(=O)OCc2ccccc2)NC(=O)OCc2ccccc2)CCCCCC1 (stereo unspecified) ?
-12

###

Assay: NCI Yeast Anticancer Drug Screen. Data for the mec2-1 strain (AID 157)
Details: S. cerevisiae mec2-1 strain, at 50.0 µM (retest, dose inferred, filed as 5.0), stronger effect = higher value
The panel holds about 79,000 compounds, 15% with a hit somewhere; the sample as a whole holds those more often.
MEASURED_ATTRIBUTE: growth inhibition (%)
Give bare numbers, in %.

For the 3 compounds below, give their growth inhibition values.
1. CSC1=NSC(c2ccccc2)=C(c2ccccc2)S1
2. COc1ccc(/C=C(/NC(=O)c2ccccc2)C(=O)Nc2ccccc2)cc1OC
3. Cc1cc(Sc2ccccc2)c2c(C)ccc(C(C)C)cc1-2

1: 10; 2: -12; 3: -12

###

Assay: NCI Yeast Anticancer Drug Screen. Data for the rad50 strain (AID 155);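 further: 0% = growth of vehicle-only cultures of the same strain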
Details: S. cerevisiae rad50 strain growth inhibition; at 50.0 µM; stronger effect = higher value
About 79,000 compounds went through this panel and 15% of them were active in at least one assay; those are over-represented in the sample as a whole. Where a SMILES comes first, the peptide text is derived from it. [ ]: non-standard residue; d: D form. The star is where a group is joined. Cbz = O=C(OCc1ccccc1)*; Nva = CCC[CH](N)C(=O)O
MEASURED_ATTRIBUTE: growth inhibition (%)
Give bare numbers, in %.

Recorded results for 5 compounds are shown here.
COMPOUND	MEASURED_ATTRIBUTE	READING
CN(C)c1nc(N(C)C)nc([N+](C)(C)C)n1	growth inhibition	98.5
CCCC(N)C(=O)NC(C(=O)O)C(C)C (stereo unspecified) (H-[Nva]-Val-OH; configuration not given here)	growth inhibition	38.1
COc1nc2nc(Cl)cc(C)c2c2ccccc12 (tested in a mixture with another compound)	growth inhibition	98.1
C=C(C)COc1ccccc1C(OCC)OCC	growth inhibition	49.9
O/N=C1/CCCC/C1=C\c1ccc(Cl)c(Cl)c1	growth inhibition	98.8

Hi there! I need growth inhibition for each item below, if you can.
1. CN(C)CCCNc1c2ccccc2nc2ccc([N+](=O)[O-])cc12
2. CCC1(C)OC(=O)C(c2ccccc2)O1 (stereo unspecified)
3. CCCCCCCCCCCCOCC[N+](CCO)(CCO)Cc1ccccc1
4. Cc1ccc(C(=O)C(CCC#N)(CCC#N)CCC#N)cc1
5. O=C1C(Cl)=C(Cl)C(=C2C(Cl)=C(Cl)C(=O)C(Cl)=C2Cl)C(Cl)=C1Cl
6. CCC[CH2][Sn]([CH2]CCC)([O]C(=O)C(OC)c1ccccc1)[O]C(=O)C(OC)c1ccccc1 (stereo unspecified)
7. CC(c1ccccc1)n1c2ccccc2c2c(N)ncnc21 (stereo unspecified)

1: 68.3; 2: 9.2; 3: 99.3; 4: -13.7; 5: 99.5; 6: 89; 7: 78.4

Need growth inhibition for each of these compounds.
1. CCCCC(CC)C(O)C(=O)O (stereo unspecified)
2. O=C(CSc1nnc(Cc2ccccc2)o1)Nc1ccc(Cl)cc1
3. CCOC(=O)c1[nH]n(-c2ccccc2)c(=O)c1/C=N/C(=S)N=Nc1c(O)[nH]c2ccccc12
4. O=C(Cc1nc2ccccc2s1)Nc1cccc(C(F)(F)F)c1
5. c1ccc(Cn2nnc(-c3ccccc3)c2-c2ccccc2)cc1
6. CCOC(=O)CNC(=O)CNC(=O)CNC(=O)OCc1ccccc1 (Cbz-Gly-Gly-Gly-OEt)
7. O=C(CC1C(=O)c2ccccc2C1=C1C(=O)c2ccccc2C1=O)c1ccccc1 (stereo unspecified)

46.8
16.1
-2.3
92.2
90.6
7.6
81.8

Hey, quick one: what's growth inhibition for each of these?
1. c1ccc(-c2cc(Nc3ccc4c(c3)OCO4)c3cc(C4CCCCC4)ccc3n2)cc1
2. CCCCNCCCNCCCNC(=O)c1csc(-c2csc(CCNC(=O)C(NC(=O)C(C)C(O)C(C)NC(=O)C(NC(=O)c3nc(C(CC(N)=O)NCC(N)C(N)=O)nc(N)c3C)C(OC3OC(CO)C(O)C(O)C3OC3OC(CO)C(O)C(OC(N)=O)C3O)c3cnc[nH]3)C(C)O)n2)n1 (stereo unspecified)
3. BrC1CCCCCC1
4. CC1=CCC[C@@H]2C1(C)CCC(C)[C@@]2(C)CC1=CC(=O)C=CC1=O (stereo partly specified)
5. C[n+]1c(/C=C/c2ccc(N3CCCC3)cc2)sc2ccccc21
6. Oc1ccc(Cc2cc(Cl)cc(Cl)c2O)cc1Cl

1. 79
2. 93
3. 51.9
4. 86.1
5. 98.6
6. 99.5

What measured growth inhibition goes with CC(C)OC(=S)SSSC(=S)OC(C)C ?
99.5

###

Experiment: NCI Yeast Anticancer Drug Screen. Data for the bub3 strain (AID 167)
Conditions: S. cerevisiae bub3 mutant strain, at 5.0 µM (retest, dose inferred, filed as 0.5), stronger effect = higher value
About 79,000 compounds went through this panel and 15% of them were active in at least one assay; those are over-represented in the sample as a whole.
Give measured growth inhibition for each item. Keep answers brief.
Answers are plain numbers, in %.

COMPOUND	growth inhibition [%]
CC(C)(C)c1ccc(C(=O)n2c(=S)oc3ccc(Cl)cc32)cc1	43
N#C/C(=C\c1cc(Cl)cc(Cl)c1O)C(/C(C#N)=C/c1cc(Cl)cc(Cl)c1O)c1ccc2c(c1)OCO2 (stereo not drawn)	74

Hi there! I need growth inhibition for each item below, if you can.
1. CC(C)CCCC(C)C1CCC2C3CC=C4CC(OC(=O)Nc5ccc(S(=O)(=O)c6ccc(F)cc6)cc5)CCC4(C)C3CCC12C (stereo not drawn)
2. Cc1[nH]c(=O)[nH]c(=O)c1CN(C)Cc1cc(Cl)cc(Cl)c1O
3. CCCCCCCCCCCCCCCCN
4. CCS/C(SC)=C(/c1ccccc1)[P+](c1ccccc1)(c1ccccc1)c1ccccc1

1: 1; 2: -8; 3: 98; 4: 99

Dear reader, for each entry below, please note its growth inhibition.
1. O=[N+]([O-])c1ccccc1OS(=O)(=O)c1ccccc1
2. C=CCN1/C(=C\C=C\c2ccc3cc(C)ccc3[n+]2CC=C)C=Cc2cc(C)ccc21
3. CC(=O)Nc1ccc(/C=N\NC(=O)c2ccco2)cc1
4. Cc1ccc[n+](CC(=O)C2CCC3CC4CCCCC4CC3C2)c1 (stereo not drawn)

[-4, 83, -8, 1]

###

Would you kindly list growth inhibition for each of these compounds?
Assay: NCI Yeast Anticancer Drug Screen. Data for the rad50 strain (AID 155);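 further: 0% = growth of vehicle-only cultures of the same strain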
Conditions: S. cerevisiae rad50 strain growth inhibition; at 5.0 µM (retest, dose inferred, filed as 0.5); stronger effect = higher value
The panel holds about 79,000 compounds, 15% with a hit somewhere; the sample as a whole holds those more often.
Answers are plain numbers, in %.

Worked set:
COMPOUND	MEASURED_ATTRIBUTE	UNITS_SYMBOL	READING
Cc1cc(N=Nc2ccccc2C)c(N)cc1N	growth inhibition	%	-12
O=[N+]([O-])/C(Br)=C\c1ccc([N+](=O)[O-])cc1	growth inhibition	%	19
CCC1=C(C)/C(=C/c2[nH]c(C(Br)Br)c(CC)c2C)N=C1C(Br)Br	growth inhibition	%	-1

Go through the items and report each one's growth inhibition.
1. CCOC(=O)n1c2ccccc2c(=O)n1CCO
2. CCCCCCCCCCCCNC(=O)C[n+]1cccc(C(=O)Nc2ccccc2)c1
3. Clc1nc2cc3nc(Cl)c(Cl)nc3cc2nc1Cl
4. C=C(CN(C)C)C(=O)c1ccccc1
5. CCOc1cc2c(cc1Cc1c(OC)cc(OC)cc1OC)OCO2
6. COc1ccc(CN2COc3c(cc(C)c4cccnc34)C2)cc1
7. O=C1c2ccccc2C(O)(c2ccccc2)N1c1ccc([N+](=O)[O-])cc1 (configuration not stated)

1. -23
2. 99
3. 18
4. -5
5. 5
6. 14
7. 7

Lab note: each compound below needs its growth inhibition filled in.
1. CCCCC1(C(O)CC)Sc2ccccc2N1C (configuration not stated)
2. COc1cc(C2C(C(=O)O)=C(C)Oc3cc4c(cc32)OCO4)cc(OC)c1OC (configuration not stated)
3. COc1cc(OC)c(C/C=C/c2ccccc2)cc1O

-7
91
27

Report growth inhibition for every entry below.
1. O=C1CCC(c2ccccc2)=NN1c1nc2ccccc2s1
2. O=C1NC(c2ccccc2)(c2cccs2)C(=O)N1C1c2ccccc2Oc2ccccc21 (configuration not stated)

1. 5
2. 0

State recorded growth inhibition for all listed compounds.
1. C[C@]12C[C@@H](c3ccccc3)Nc3ccccc3N1C(c1ccccc1)=NO2
2. c1ccc2c(c1)CC1c3[nH]c4ccccc4c3CCN21 (configuration not stated)

1. -4
2. -6
